assay: Antiproliferative activity against human alpha-2 cells after 48 hrs by MTT assay; assay type: functional, cell-based
Threshold 50 µM: IC50 strictly smaller gives true (1), otherwise false (0).

[
  {
    "Chemical string": "CC(C)C[C@H](NC(=O)OC(C)(C)C)C(=O)O[C@H]1CC[C@]2(C)[C@H]3C[C@@H](O)[C@@H]4[C@@H]([C@](C)(O)CCCC(C)(C)O)CC[C@@]4(C)[C@]3(C)CC[C@H]2C1(C)C",
    "Class label": "true (1)"
  },
  {
    "Chemical string": "CC(C)(O)CCC[C@@](C)(O)[C@H]1CC[C@]2(C)[C@@H]1[C@H](O)C[C@@H]1[C@@]3(C)CC[C@H](OC(=O)[C@H](Cc4ccc(O)cc4)NC(=O)OC(C)(C)C)C(C)(C)[C@@H]3CC[C@]12C",
    "Class label": "true (1)"
  },
  {
    "Chemical string": "CC(C)C[C@H](NC(=O)OC(C)(C)C)C(=O)O[C@@H]1C[C@@H]2[C@@]3(C)CC[C@H](O)C(C)(C)[C@@H]3CC[C@@]2(C)[C@]2(C)CC[C@H]([C@](C)(O)CCCC(C)(C)O)[C@@H]12",
    "Class label": "false (0)"
  },
  {
    "Chemical string": "CC(C)(O)CCC[C@@](C)(O)[C@H]1CC[C@]2(C)[C@@H]1[C@H](O)C[C@@H]1[C@@]3(C)CC[C@H](O)C(C)(C)[C@@H]3CC[C@]12C",
    "Class label": "true (1)"
  },
  {
    "Chemical string": "C[C@H](NC(=O)OC(C)(C)C)C(=O)O[C@H]1CC[C@]2(C)[C@H]3C[C@@H](OC(=O)[C@H](C)NC(=O)OC(C)(C)C)[C@@H]4[C@@H]([C@](C)(O)CCCC(C)(C)O)CC[C@@]4(C)[C@]3(C)CC[C@H]2C1(C)C",
    "Class label": "false (0)"
  },
  {
    "Chemical string": "CC(C)(O)CCC[C@@](C)(O)[C@H]1CC[C@]2(C)[C@@H]1[C@H](OC(=O)[C@H](CCC(=O)OCc1ccccc1)NC(=O)OC(C)(C)C)C[C@@H]1[C@@]3(C)CC[C@H](OC(=O)[C@H](CCC(=O)OCc4ccccc4)NC(=O)OC(C)(C)C)C(C)(C)[C@@H]3CC[C@]12C",
    "Class label": "false (0)"
  },
  {
    "Chemical string": "CC(C)(O)CCC[C@@](C)(O)[C@H]1CC[C@]2(C)[C@@H]1[C@H](OC(=O)[C@H](CCC(=O)OCc1ccccc1)NC(=O)OC(C)(C)C)C[C@@H]1[C@@]3(C)CC[C@H](O)C(C)(C)[C@@H]3CC[C@]12C",
    "Class label": "false (0)"
  },
  {
    "Chemical string": "CC[C@H](C)[C@H](N)C(=O)O[C@H]1CC[C@]2(C)[C@H]3C[C@@H](O)[C@@H]4[C@@H]([C@](C)(O)CCCC(C)(C)O)CC[C@@]4(C)[C@]3(C)CC[C@H]2C1(C)C",
    "Class label": "true (1)"
  },
  {
    "Chemical string": "C[C@@H](O)[C@H](N)C(=O)O[C@H]1CC[C@]2(C)[C@H]3C[C@@H](O)[C@@H]4[C@@H]([C@](C)(O)CCCC(C)(C)O)CC[C@@]4(C)[C@]3(C)CC[C@H]2C1(C)C",
    "Class label": "true (1)"
  },
  {
    "Chemical string": "CC(C)(O)CCC[C@@](C)(O)[C@H]1CC[C@]2(C)[C@@H]1[C@H](O)C[C@@H]1[C@@]3(C)CC[C@H](OC(=O)[C@H](CCCNC(=N)N)NC(=O)OC(C)(C)C)C(C)(C)[C@@H]3CC[C@]12C",
    "Class label": "true (1)"
  }
]
